Origin of values: PubChem BioAssay AID1159580

Quick reference: normalized growth of the listed items.
- method: chemical genetic growth profiling, strain panel (AID 1159580);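 also: tested at 20 µM; growth read once vehicle control cultures reached saturation at 30 °C; 1 = growth at the plate median or of vehicle wells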
- protocol_conditions: S. cerevisiae deletion strains, growth OD, locus YMR125W, strain sto1, stronger effect = lower value
Screen size: about 5,500 compounds; about 2,000 (36%) were called active. Roughly 18% stayed inconclusive and do not appear here. The list shows a part of the results.

# compound, normalized growth
data = [
    ("CCCCCCCCCCCCCCCC[N+](C)(C)C", 0.0643),
    ("Cc1[nH]c(C)c(Cl)c(=O)c1Cl", 0.994),
    ("CC1=C(CC(=O)O)c2cc(F)ccc2/C1=C\\c1ccc(S(C)=O)cc1 (stereo not given)", 1.02),
    ("C=C1C2CC[C@H]3[C@]4(C)C[C@H](OC5OC(CO)C(OS(=O)(=O)O)C(OS(=O)(=O)O)C5OC(=O)CC(C)C)C[C@@H](C(=O)O)[C@H]4CC[C@]3(C2)[C@H]1O (stereo not given in full)", 1.02),
    ("CNC(C)[C@H](O)c1ccccc1 (stereo not given in full)", 0.955),
]

---

Listed below: normalized growth values for each entry.
- method: chemical genetic growth profiling, strain panel (AID 1159580);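 also: tested at 20 µM; growth read once vehicle control cultures reached saturation at 30 °C; 1 = growth at the plate median or of vehicle wells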
- protocol_conditions: S. cerevisiae deletion strains, growth OD, locus YFL029C, strain CAK1, stronger effect = lower value
About 2,000 (36%) of roughly 5,500 compounds were called active. About 18% were inconclusive and are not listed. Some of the results follow.

# compound, normalized growth
data = [
    ("COc1ccc(NNC(=O)c2sc3ccccc3c2Cl)cc1", "0.92 (inactive)"),
    ("O=C1C(=O)N(CN2CCc3c([nH]c4ccccc34)C2C(F)(F)F)c2ccc(F)cc21 (stereo not given)", "0.959 (inactive)"),
    ("Cc1nn(Cc2cccc(C(=O)Nc3ccc(Cl)cc3)c2)c(C)c1Br", "0.982 (inactive)"),
    ("N#Cc1ccc(S(=O)(=O)Nc2ccccc2Oc2ccc(Cl)cc2Cl)cc1", "0.979 (inactive)"),
    ("COc1cc2c(cc1OC)C(C)N(C(=O)c1sc3ccccc3c1Cl)CC2 (stereo not given)", "0.968 (inactive)"),
]

---

Each record here notes measured normalized growth.
- method: chemical genetic growth profiling, strain panel (AID 1159580);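 also: tested at 20 µM; growth read once vehicle control cultures reached saturation at 30 °C; 1 = growth at the plate median or of vehicle wells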
- protocol_conditions: S. cerevisiae deletion strains, growth OD, locus YNR030W, strain Alg12, stronger effect = lower value
Out of some 5,500 compounds screened, about 2,000 (36%) were called active. About 18% were inconclusive and are not listed. The list shows a part of the results.

# molecule, normalized growth
records = [
    ("O=C(Oc1ccc(C(F)(F)F)cc1[N+](=O)[O-])c1c(F)cccc1F", 0.559),
    ("CCC(=O)Nc1cc(F)ccc1C", 1.01),
    ("CCCc1cc(=O)c2ccc(O)cc2o1", 0.985),
    ("CCOC(=O)COc1nc(-c2cccs2)cc(C(F)(F)F)c1C#N", 0.967),
    ("Clc1cccc(Cl)c1CSC1=NCCCN1C1CCCCC1", 0.975),
    ("CCOC(=O)C1CCN(C(=S)Nc2ccccc2C(F)(F)F)CC1", 0.978),
    ("CCOC(=O)c1cnc2cc(C)nn2c1C", 0.981),
    ("Ic1ccc(I)s1", 1.04),
    ("CC(C)(C)c1ccc(-c2nc(-c3cc(C(C)(C)C)c(O)c(C(C)(C)C)c3)cs2)cc1", 1.03),
    ("COc1ccccc1N1CCN(S(=O)(=O)c2cc(C)c(Cl)cc2C)CC1", 0.982),
    ("Cc1cccc(C)c1NC(=O)C(C)Oc1ccc(Cl)cc1Cl (stereo not given)", 1.01),
    ("COC(=O)/C(=C/N(C)C)Sc1cc(C)c(Cl)cc1Cl", 0.942),
    ("Cc1ccc(OS(=O)(=O)c2ccc(C#N)cc2)c(Br)c1", 0.918),
    ("COc1ccc(OC)c(S(=O)(=O)Oc2ccc(C#N)cc2)c1", 0.973),
    ("CC1=C(OS(=O)(=O)c2cc(C)c(Cl)cc2Cl)C(=O)CC1", 0.968),
    ("CCOC(=O)CSC(=S)NCc1ccc(C)cc1", 0.0728),
    ("COc1ccc(C2=C(C(C)=O)C(C)=NC(=S)C2C#N)cc1 (stereo not given)", 0.987),
    ("CSc1nnnn1-c1c(C)cccc1C", 1),
    ("CN(C)c1ccc(C(=O)NN)cc1", 1.01),
    ("O=S(=O)(Nc1cccc2cccnc12)c1cc(Cl)c(Cl)cc1Cl", 0.773),
    ("CCO/C=C1\\SC(=S)N(CCc2ccccc2)C1=O", 0.929),
    ("CC12CCC3C(CCC4=CC(=O)CCC43CO)C1CCC2OC(=O)c1ccccc1 (stereo not given)", 0.986),
    ("COc1ccc(CN2C(=O)CSC2c2ccccn2)cc1 (stereo not given)", 1),
    ("Cc1ccc(-c2csc(-c3ccc(Cl)cc3)n2)c(C)c1", 0.949),
    ("CCCS(=O)(=O)c1c(C)c(C)n(Cc2ccccc2)c1N", 1.02),
]

---

- method: chemical genetic growth profiling, strain panel (AID 1159580);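 also: tested at 20 µM; growth read once vehicle control cultures reached saturation at 30 °C; 1 = growth at the plate median or of vehicle wells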
- protocol_conditions: S. cerevisiae deletion strains, growth OD, locus YOR106W, strain vam3
Among all 5,500 compounds or so, about 2,000 (36%) were called active. Roughly 18% stayed inconclusive and do not appear here. No stated cut-off is given here; in the data, active means normalized growth mostly below about 0.91 (no sharp cut-off); inconclusive means no clear call, values can overlap the other calls; inactive means mostly above about 0.92. This is one part of the list.
Outcome codes: active, inactive

# molecule, label
rows = [
    ("ClC1=C(Cl)C2(Cl)C3C4C=CC(C4)C3C1(Cl)C2(Cl)Cl (centres undefined)", "inactive"),
    ("CN(C)CC/C=C1\\c2ccccc2Sc2ccc(Cl)cc21", "active"),
    ("CC(=O)O[C@@H]1C[C@@]2(C)C(CC[C@@H]2C(C)=O)C2CCC3=CC(=O)CC[C@]3(C)C21 (some centres undefined)", "inactive"),
    ("COc1cc(/C=C/C(=O)/C=C(O)/C=C/c2ccc(O)c(OC)c2)ccc1O", "active"),
    ("CC(C)(O)[C@@H]1[C@H]2OC(=O)[C@@H]1[C@]1(O)C[C@H]3O[C@]34C(=O)O[C@H]2[C@]14C", "inactive"),
    ("COc1cc2c(cc1OC)[C@@H]1C(=O)c3ccc(O)c(CC=C(C)C)c3O[C@@H]1CO2", "active"),
    ("CCN(CC)CCCC(C)Nc1c2ccc(Cl)cc2nc2ccc(OC)cc12 (centres undefined)", "inactive"),
    ("COP(=O)(OC)OC=C(Cl)Cl", "inactive"),
    ("CC(CCc1ccccc1)NC(C)C(O)c1ccc(O)cc1 (centres undefined)", "inactive"),
    ("COc1cc2c(cc1OC)[C@@H]1C(=O)c3ccc4c(c3O[C@@H]1CO2)C=CC(C)(C)O4", "inactive"),
    ("C[C@H]1CC2C([C@@H](O)C[C@@]3(C)C2CC[C@]3(O)C(=O)CO)[C@@]2(C)C=CC(=O)C=C12 (some centres undefined)", "inactive"),
    ("COc1cc(O)c(C(=O)/C=C/c2ccc(OC)c(O)c2)c(OC)c1", "active"),
    ("CCN(CC)CCCC(C)Nc1ccnc2cc(Cl)ccc12 (centres undefined)", "inactive"),
    ("COc1ccc2c(C)cc(=O)oc2c1", "inactive"),
    ("COc1cc(O)c(C(=O)/C=C/c2ccccc2)c(OC)c1", "active"),
    ("COC1=C(OC)C(=O)C(C/C=C(\\C)CC/C=C(\\C)CC/C=C(\\C)CC/C=C(/C)CC/C=C(\\C)CC/C=C(\\C)CC/C=C(\\C)CC/C=C(\\C)CC/C=C(\\C)CCC=C(C)C)=C(C)C1=O", "inactive"),
    ("CC1=C(C/C=C(\\C)CCC[C@H](C)CCC[C@H](C)CCCC(C)C)C(=O)c2ccccc2C1=O", "inactive"),
    ("NCC1CCC(C(=O)O)CC1 (centres undefined)", "inactive"),
    ("Cc1cc(O)c(C=O)c(O)c1C(=O)O", "inactive"),
    ("OCCN1C[C@@H](O)[C@@H](O)C(O)C1CO (some centres undefined)", "inactive"),
    ("CC(N)CCCC(C)(C)O (centres undefined)", "inactive"),
    ("CC(=O)N[C@@H](CC(C)C)C(=O)O", "inactive"),
    ("CCCCCCCCNC(C)C(O)c1ccc(SC(C)C)cc1 (centres undefined)", "active"),
    ("COc1cc2c(cc1OC)[C@@H]1C(=O)c3ccc4oc(C(C)C)cc4c3O[C@@H]1CO2", "inactive"),
    ("CNC(C)[C@H](O)c1ccccc1 (some centres undefined)", "inactive"),
    ("C[C@]12CCC(=O)C=C1CCC1C2CC[C@@]2(C)C1CC[C@@H]2O (some centres undefined)", "inactive"),
    ("COc1cc2c(cc1OC)Cc1cc(OC)c(OC)cc1Cc1cc(OC)c(OC)cc1C2", "inactive"),
    ("CS(=O)(=O)c1ccc(C2=C(c3ccccc3)C(=O)OC2)cc1", "inactive"),
    ("CC(=O)[C@H]1CCC2C3CCC4=CC(=O)CC[C@]4(C)C3CC[C@@]21C (some centres undefined)", "inactive"),
    ("CC(Oc1ccccc1)C(=O)N[C@@H]1C(=O)N2[C@@H]1SC(C)(C)[C@@H]2C(=O)O (some centres undefined)", "inactive"),
    ("COc1ccc2c(c1OC)C(=O)O[C@@H]2[C@H]1c2cc3c(cc2CCN1C)OCO3", "inactive"),
    ("CCOC(=O)c1c(C)cc(O)c(C=O)c1O", "active"),
    ("N=c1ccn2c(n1)O[C@@H]1C2O[C@H](CO)[C@H]1O (some centres undefined)", "inactive"),
    ("CC(=O)OCC(=O)[C@H]1CCC2C3CCC4=CC(=O)CC[C@]4(C)C3CC[C@@]21C (some centres undefined)", "inactive"),
    ("CN[C@@H](C)[C@@H](O)c1ccccc1", "inactive"),
    ("Cc1cc(O)c(C)c(O)c1C(=O)O", "inactive"),
    ("S=c1nc[nH]c2nc[nH]c12", "inactive"),
    ("CC(=O)O[C@H]1[C@@H]2[C@@H](OC(=O)Cc3ccccc3)[C@@H](C)C[C@]2(OC(C)=O)C(=O)/C(C)=C/[C@H]2[C@H](CC[C@@]13CO3)C2(C)C", "inactive"),
    ("CCOC(=O)c1c(C)c(Cl)c(O)c(Cl)c1O", "active"),
    ("NC(=O)C(c1ccccc1)(c1ccccc1)C1CCN(CCc2ccc3c(c2)CCO3)C1 (centres undefined)", "inactive"),
    ("CCC(=O)O[C@H]1CCC2C3CCC4=CC(=O)CC[C@]4(C)C3CC[C@@]21C (some centres undefined)", "active"),
    ("COc1cc(O)c(C(=O)/C=C/c2ccc(O)c(OC)c2)c(OC)c1", "inactive"),
    ("COc1ccc2c3c1O[C@H]1C[C@@H](O)C=C[C@@]31CCN(C)C2", "inactive"),
    ("Cc1[nH]c(C)c(Cl)c(=O)c1Cl", "inactive"),
]
